Target: human Cav2.2 (Homo sapiens, UniProt Q00975)
Sequence (Q00975 whole entry): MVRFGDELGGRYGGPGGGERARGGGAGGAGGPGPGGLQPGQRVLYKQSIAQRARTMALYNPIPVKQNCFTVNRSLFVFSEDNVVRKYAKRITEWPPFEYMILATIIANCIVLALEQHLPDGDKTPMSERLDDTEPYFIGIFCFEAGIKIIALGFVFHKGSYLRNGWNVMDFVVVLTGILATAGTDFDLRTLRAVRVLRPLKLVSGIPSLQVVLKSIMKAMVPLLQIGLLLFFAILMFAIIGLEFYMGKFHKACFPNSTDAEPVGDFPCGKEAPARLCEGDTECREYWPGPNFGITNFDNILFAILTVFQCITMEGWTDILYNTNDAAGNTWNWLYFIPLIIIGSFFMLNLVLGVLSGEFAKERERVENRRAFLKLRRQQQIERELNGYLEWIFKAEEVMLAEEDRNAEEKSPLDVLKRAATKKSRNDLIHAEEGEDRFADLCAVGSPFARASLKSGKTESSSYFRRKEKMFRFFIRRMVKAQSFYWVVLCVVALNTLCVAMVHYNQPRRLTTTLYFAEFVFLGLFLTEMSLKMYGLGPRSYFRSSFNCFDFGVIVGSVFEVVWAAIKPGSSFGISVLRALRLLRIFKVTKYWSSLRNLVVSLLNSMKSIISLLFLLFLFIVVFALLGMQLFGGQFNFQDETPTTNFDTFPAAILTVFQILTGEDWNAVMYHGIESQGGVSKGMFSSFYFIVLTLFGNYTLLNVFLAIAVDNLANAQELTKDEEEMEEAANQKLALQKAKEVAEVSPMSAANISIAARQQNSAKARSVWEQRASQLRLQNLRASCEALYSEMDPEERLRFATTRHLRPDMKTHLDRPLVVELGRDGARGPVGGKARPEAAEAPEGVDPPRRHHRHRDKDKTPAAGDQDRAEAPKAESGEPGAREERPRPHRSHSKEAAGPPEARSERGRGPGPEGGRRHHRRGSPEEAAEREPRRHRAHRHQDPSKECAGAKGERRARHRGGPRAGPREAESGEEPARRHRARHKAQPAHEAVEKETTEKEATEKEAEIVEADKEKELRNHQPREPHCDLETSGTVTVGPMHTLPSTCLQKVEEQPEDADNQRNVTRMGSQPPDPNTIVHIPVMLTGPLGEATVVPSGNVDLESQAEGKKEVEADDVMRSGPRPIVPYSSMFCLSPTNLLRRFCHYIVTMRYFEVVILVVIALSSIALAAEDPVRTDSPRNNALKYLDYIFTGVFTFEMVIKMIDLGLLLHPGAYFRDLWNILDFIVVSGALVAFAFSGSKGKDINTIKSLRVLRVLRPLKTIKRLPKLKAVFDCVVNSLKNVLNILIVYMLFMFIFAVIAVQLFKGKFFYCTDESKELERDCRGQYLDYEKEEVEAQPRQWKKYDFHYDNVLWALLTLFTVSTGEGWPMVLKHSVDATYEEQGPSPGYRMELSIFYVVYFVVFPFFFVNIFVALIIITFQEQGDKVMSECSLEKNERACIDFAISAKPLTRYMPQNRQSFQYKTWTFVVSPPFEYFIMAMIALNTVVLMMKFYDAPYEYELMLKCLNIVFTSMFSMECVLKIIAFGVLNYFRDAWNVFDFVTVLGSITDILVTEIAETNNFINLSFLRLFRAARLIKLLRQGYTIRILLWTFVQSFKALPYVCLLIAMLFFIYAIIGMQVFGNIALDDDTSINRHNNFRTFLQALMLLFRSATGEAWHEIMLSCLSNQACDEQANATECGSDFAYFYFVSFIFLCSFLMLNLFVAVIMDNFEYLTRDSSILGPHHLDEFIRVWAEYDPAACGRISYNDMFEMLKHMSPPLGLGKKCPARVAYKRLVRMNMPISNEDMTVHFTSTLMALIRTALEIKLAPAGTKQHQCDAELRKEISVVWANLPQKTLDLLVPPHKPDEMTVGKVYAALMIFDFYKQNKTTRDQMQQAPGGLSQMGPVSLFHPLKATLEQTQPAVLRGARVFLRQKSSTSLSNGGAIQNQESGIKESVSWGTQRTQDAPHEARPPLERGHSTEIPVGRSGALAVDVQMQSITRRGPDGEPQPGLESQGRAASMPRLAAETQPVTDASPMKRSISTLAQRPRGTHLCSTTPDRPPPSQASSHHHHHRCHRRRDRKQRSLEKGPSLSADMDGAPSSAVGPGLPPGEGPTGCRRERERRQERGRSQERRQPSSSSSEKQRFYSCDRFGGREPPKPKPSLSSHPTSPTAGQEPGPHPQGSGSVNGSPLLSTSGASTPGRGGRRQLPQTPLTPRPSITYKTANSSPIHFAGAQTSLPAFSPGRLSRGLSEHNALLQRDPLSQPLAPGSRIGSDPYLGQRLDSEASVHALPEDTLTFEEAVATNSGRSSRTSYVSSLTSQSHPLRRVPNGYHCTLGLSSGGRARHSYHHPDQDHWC
Sequence (P54289 25-946 partner limits assumed): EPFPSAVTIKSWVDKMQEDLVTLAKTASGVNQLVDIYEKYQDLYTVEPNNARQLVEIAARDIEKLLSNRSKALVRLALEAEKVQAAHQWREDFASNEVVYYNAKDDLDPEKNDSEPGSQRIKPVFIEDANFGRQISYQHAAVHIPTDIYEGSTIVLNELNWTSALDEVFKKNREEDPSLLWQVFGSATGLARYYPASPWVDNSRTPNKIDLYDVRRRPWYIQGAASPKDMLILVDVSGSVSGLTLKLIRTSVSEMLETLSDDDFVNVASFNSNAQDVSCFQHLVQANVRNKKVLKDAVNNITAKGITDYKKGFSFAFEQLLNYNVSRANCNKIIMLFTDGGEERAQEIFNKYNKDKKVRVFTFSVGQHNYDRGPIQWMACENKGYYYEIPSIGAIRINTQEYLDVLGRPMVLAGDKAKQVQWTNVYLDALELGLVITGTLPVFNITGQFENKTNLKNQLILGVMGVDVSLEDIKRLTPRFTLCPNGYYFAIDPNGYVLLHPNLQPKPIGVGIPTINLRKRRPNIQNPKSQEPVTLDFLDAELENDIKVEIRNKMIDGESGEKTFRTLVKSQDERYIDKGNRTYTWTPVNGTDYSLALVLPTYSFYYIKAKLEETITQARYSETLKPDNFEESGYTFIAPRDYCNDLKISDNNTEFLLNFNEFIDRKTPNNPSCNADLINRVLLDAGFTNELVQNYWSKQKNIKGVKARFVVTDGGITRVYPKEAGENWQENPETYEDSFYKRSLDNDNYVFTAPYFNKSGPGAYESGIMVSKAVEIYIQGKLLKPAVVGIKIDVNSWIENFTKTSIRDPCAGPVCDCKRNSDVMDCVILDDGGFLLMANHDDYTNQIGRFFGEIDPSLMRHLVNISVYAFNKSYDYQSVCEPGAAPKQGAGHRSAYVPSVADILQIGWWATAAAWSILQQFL
Sequence (P54289 947-1103 partner limits assumed): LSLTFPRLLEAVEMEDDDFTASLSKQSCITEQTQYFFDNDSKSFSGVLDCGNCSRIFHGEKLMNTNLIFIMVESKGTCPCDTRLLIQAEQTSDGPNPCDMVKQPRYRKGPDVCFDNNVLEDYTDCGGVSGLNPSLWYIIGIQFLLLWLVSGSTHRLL
Sequence (P54284 whole entry partner): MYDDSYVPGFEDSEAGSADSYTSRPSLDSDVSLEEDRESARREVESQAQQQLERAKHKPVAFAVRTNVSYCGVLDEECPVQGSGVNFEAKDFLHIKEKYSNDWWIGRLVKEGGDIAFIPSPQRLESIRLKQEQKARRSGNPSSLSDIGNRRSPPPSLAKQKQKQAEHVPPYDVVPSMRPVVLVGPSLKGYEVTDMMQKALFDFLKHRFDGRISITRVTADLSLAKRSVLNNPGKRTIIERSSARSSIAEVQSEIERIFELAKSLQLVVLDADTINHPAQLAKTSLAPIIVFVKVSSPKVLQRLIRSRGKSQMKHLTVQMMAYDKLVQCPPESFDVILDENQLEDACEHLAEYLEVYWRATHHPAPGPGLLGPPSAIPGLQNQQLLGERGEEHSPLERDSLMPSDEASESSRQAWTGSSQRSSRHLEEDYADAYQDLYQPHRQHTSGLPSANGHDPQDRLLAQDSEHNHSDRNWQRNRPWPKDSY
Experiment: Assessment of calcium channel activity using FLIPR (Ca2+ influx in IMR32 cells)
Assay type: cell-based
Details: 60 minute pre-incubation with compound, 2 μM nifedipine, depolarized with 80 mM KCl
readout.type: IC50 (µM)

molecule	study.system	unit.of.measure	IC50
CC(C)(C)C[C@H](NCC1CC1)C(=O)N[C@H]1CC[C@@H]2CN(S(=O)(=O)c3ccc(C(F)(F)F)cc3)C[C@@H]21 [Example 471]	human Cav2.2 (Homo sapiens, UniProt Q00975)	µM	0.65

P = CC(C)(C)C[C@H](NC(=O)OC(C)(C)C)C(=O)N[C@H]1CC[C@@H]2CN(S(=O)(=O)c3ccc(C(F)(F)F)cc3)C[C@@H]21 [Example 344]
Q = CC(C)C[C@@H](C(=O)N[C@@H]1CC[C@H]2CN(Cc3ccccc3)C[C@H]21)N(C)CCC(C)(C)C [Example 511]
R = CN[C@@H](CC(C)C)C(=O)N[C@@H]1CC[C@H]2CN(Cc3ccc(C(F)(F)F)cc3)C[C@H]21 [Example 449]
Order the records by IC50, with each subsequent value no larger than the one before. Answer format: list of labels, ordered as asked. R, Q, P

====

Target: human Cav2.2 (Homo sapiens)
Assay: Assessment of calcium channel activity using FLIPR (Ca2+ influx in IMR32 cells)
Assay type: cell-based
Conditions: IMR-32, @ 10 μM, 3 minute pre-incubation (*), read-out: percent inhibition
readout.type: inhibition at 10 µM (%)

// solved cases for inhibition at 10 µM follow
molecule	study.system	value.reported
CC[C@H](C(=O)N[C@@H]1CC[C@@H]2CN([C@@H](C)c3ccccc3)C[C@@H]21)c1ccccc1	human Cav2.2 (Homo sapiens)	76
O=C(N[C@H]1CC[C@@H]2CN(Cc3ccccc3)C[C@@H]21)C(c1ccccc1)C1CC1 (stereo partly shown)	human Cav2.2 (Homo sapiens)	56
CC(C)C(C(=O)N[C@H]1CC[C@@H]2CN(CCc3ccccc3)C[C@@H]21)c1ccccc1 (stereo partly shown)	human Cav2.2 (Homo sapiens)	79
C[C@@H](C(=O)N[C@H]1CC[C@@H]2CN(Cc3ccccc3)C[C@@H]21)c1ccccc1	human Cav2.2 (Homo sapiens)	15
CC[C@H](C(=O)N[C@@H]1CC[C@H]2CN([C@@H](C)c3ccccc3)C[C@H]21)c1ccccc1	human Cav2.2 (Homo sapiens)	60

a = C[C@H](C(=O)N[C@H]1CC[C@@H]2CN(Cc3ccccc3)C[C@@H]21)c1ccccc1
b = CC(C)Cc1ccc([C@H](C)C(=O)N[C@H]2CC[C@@H]3CN(Cc4ccccc4)C[C@@H]32)cc1
Identify the entry with the larger inhibition at 10 µM. Options: a and b Record your answer as the label of the chosen record. b
(b: 92%, a: 27%)

====

Target: human Cav2.2 (Homo sapiens, UniProt Q00975)
Test: Assessment of calcium channel activity using FLIPR (Ca2+ influx in IMR32 cells)
Format: cell-based
Conditions: 60 minute pre-incubation with compound, 2 μM nifedipine, depolarized with 80 mM KCl
pIC50: −log10 of the molar value.
readout.type: pIC50

// solved cases for pIC50 follow
compound	pIC50
O=S(=O)(c1cccc(C(F)(F)F)c1)N(C1CC1)[C@@H]1CC[C@H]2CN(Cc3ccccc3)C[C@H]21 (relative stereo)	6.00
c1ccc(CN2C[C@@H]3CC[C@@H](NC4CC4)[C@@H]3C2)cc1 (relative stereo)	4.16
CN(C(=O)OC(C)(C)C)C(Cc1ccccc1)C(=O)NC1CCC2CN(S(=O)(=O)c3ccc(C(F)(F)F)cc3)CC21 (stereo not shown)	6.07

1 = CN[C@H](C(=O)N[C@@H]1CC[C@H]2CN(Cc3ccc(C(F)(F)F)cc3)C[C@H]21)C(C)C
2 = CCC[C@H](NC)C(=O)N[C@H]1CC[C@@H]2CN(S(=O)(=O)c3ccccc3C(F)(F)F)C[C@@H]21
3 = O=C(N[C@H]1CC[C@@H]2CN(c3cccc(C(F)(F)F)n3)C[C@@H]21)c1ccc(F)cc1
Sort entries by pIC50 from minimum to maximum value. Answer format: list of labels, ordered as asked. 1, 2, 3
